test system: DU-145; assay: Cytotoxicity against human DU145 cells by SRB assay; type: functional
readout-name: GI50 (µM)
Reply numerically in µM, unit not repeated.

{"test-smiles": "COc1cc(/C=C(\\C)[N+](=O)[O-])c(-c2c(/C=C(\\C)[N+](=O)[O-])cc(OC)c(OC)c2OC)cc1OC", "GI50 [µM]": 6.75}

Asked: Please report GI50 for the following compound: COc1cc2cc3c(=O)[nH]c(=O)c-3cc3ccccc3c2c(OC)c1OC
Given back: 2.34

====

system: DU-145; experiment: Cytotoxicity against human DU145 cells by SRB assay; assay type: functional
# if measured GI50 < 10 µM: t  # else: f

Below are worked cases with known answers.
{"test-smiles": "COc1cc(C=C(C#N)C#N)c(-c2cc3c(cc2C=C(C#N)C#N)OCO3)c(OC)c1OC", "class": "f"}
{"test-smiles": "COc1cc2cc3c(=O)[nH]c(=O)c-3cc3cc4c(cc3c2c(OC)c1OC)OCO4", "class": "t"}
{"test-smiles": "COc1cc(/C=C(\\C)[N+](=O)[O-])c(-c2cc3c(cc2/C=C(\\C)[N+](=O)[O-])OCO3)c(OC)c1OC", "class": "t"}
{"test-smiles": "COc1cc2cc3c(=O)[nH]c(=O)c-3cc3cc(OC)c(OC)c(OC)c3c2cc1OC", "class": "f"}
{"test-smiles": "COC(=O)c1cc(OC)c(OC)c(OC)c1-c1ccccc1/C=C(\\C)[N+](=O)[O-]", "class": "t"}
{"test-smiles": "COc1cc(/C=C/[N+](=O)[O-])c(-c2cc3c(cc2/C=C/[N+](=O)[O-])OCO3)c(OC)c1OC", "class": "t"}

Next:
Asked: Lab note: confirm whether the reported GI50 for this compound is below 10 µM, equality not counting. compound: CCOC(=O)/C(C#N)=C/c1cc(OC)c(OC)cc1-c1c(/C=C(\C#N)C(=O)OCC)cc(OC)c(OC)c1OC
Given back: f
